biological target: plasma purified human complement protein C3 (human) (UniProt P01024); assay: cell-based or functional assay
Sequence (P01024 23-667, chain 1 of 2): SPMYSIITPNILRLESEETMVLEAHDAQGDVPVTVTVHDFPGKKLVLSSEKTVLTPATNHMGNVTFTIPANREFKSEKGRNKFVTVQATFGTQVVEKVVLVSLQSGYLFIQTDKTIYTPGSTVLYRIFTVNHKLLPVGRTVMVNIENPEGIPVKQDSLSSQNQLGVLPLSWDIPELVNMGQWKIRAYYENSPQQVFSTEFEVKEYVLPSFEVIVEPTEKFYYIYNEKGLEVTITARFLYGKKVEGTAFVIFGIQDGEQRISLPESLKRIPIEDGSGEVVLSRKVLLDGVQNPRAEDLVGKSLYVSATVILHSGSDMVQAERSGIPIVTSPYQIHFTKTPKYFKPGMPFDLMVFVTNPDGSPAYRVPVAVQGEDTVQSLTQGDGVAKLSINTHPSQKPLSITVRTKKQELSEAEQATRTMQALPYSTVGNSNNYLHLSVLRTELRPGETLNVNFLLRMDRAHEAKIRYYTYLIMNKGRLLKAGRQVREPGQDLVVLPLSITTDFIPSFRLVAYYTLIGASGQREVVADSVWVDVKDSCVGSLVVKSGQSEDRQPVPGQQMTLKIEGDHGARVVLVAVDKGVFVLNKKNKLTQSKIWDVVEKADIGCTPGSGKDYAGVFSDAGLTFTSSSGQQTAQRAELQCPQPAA
Sequence (P01024 672-1663, chain 2 of 2): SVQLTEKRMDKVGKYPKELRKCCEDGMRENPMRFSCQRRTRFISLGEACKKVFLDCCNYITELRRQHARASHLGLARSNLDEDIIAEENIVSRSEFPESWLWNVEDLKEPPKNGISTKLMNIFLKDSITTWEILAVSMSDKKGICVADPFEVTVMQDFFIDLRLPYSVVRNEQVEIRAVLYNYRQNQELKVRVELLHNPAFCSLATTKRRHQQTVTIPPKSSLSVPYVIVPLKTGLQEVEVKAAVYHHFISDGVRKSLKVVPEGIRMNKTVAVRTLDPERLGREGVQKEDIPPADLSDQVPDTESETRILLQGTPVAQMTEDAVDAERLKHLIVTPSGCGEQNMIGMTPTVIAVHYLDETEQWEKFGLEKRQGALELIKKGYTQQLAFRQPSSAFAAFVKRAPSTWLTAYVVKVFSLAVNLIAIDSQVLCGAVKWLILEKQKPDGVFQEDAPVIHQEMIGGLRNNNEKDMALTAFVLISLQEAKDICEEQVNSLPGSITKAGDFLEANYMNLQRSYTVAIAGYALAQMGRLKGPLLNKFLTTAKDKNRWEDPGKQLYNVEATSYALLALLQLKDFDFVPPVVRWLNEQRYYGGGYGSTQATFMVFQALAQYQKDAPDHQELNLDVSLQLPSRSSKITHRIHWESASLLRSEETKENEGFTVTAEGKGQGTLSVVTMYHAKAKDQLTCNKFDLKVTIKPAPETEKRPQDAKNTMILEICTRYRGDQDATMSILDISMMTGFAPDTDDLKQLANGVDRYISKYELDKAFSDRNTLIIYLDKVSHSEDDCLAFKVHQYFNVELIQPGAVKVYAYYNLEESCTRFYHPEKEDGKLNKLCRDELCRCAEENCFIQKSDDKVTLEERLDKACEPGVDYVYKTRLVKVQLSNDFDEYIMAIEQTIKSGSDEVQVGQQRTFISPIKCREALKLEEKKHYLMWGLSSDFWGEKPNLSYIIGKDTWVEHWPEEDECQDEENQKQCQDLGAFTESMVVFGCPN
Measured EC50 of hC3 cleavage, listed per entry.

Binder	Units label	EC50 of hC3 cleavage
MTSP-1 ins97aV/F97Q/T98P/F99L/C122S/Q175F/Q192D (enzyme) VVGGTDADEGEWPWQVSLHALGQGHICGASLISPNWLVSAAHCYIDDRGFRYSDPTQWTAFLGLHDQSQRSAPGVQERRLKRIISHPFFNDQVPLDYDIALLELEKPAEYSSMVRPISLPDASHVFPAGKAIWVTGWGHTQYGGTGALILQKGEIRVINQTTCENLLPQFITPRMMCVGFLSGGVDSCDGDSGGPLSSVEADGRIFQAGVVSWGDGCAQRNKPGVYTRLPLFRDWIKENTGV	nM	248
MTSP-1 Y59F/F97T/ins97aE/T98G/F99L/C122S/Q175L/Q192D (enzyme) VVGGTDADEGEWPWQVSLHALGQGHICGASLISPNWLVSAAHCFIDDRGFRYSDPTQWTAFLGLHDQSQRSAPGVQERRLKRIISHPFFNDTEGLDYDIALLELEKPAEYSSMVRPISLPDASHVFPAGKAIWVTGWGHTQYGGTGALILQKGEIRVINQTTCENLLPQLITPRMMCVGFLSGGVDSCDGDSGGPLSSVEADGRIFQAGVVSWGDGCAQRNKPGVYTRLPLFRDWIKENTGV	nM	289
